Test system: Inhibin beta A chain (activin A)
TEST_NAME: small molecules binding activin A – biochemical, small-molecule microarray, 635 nm fluorescence scan, primary screen (AID 1107);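 also: mouse activin A protein probed at 4.33 µg/mL on printed slides; score merges bound-protein fluorescence near 667 nm with spot signal-to-noise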
MEASUREMENT_CONTEXT: INHBA, higher = more signal
# cutoff 0.7 applies to composite z-score; >= gives yes (1), < gives no (0)

>>> df
                                   molecule  discrete_label
0  COC(=O)[C@H]1C(=O)c2ccccc2O[C@@](C(=O)OC)(c2ccccc2)[C@@H]1c1ccccc1          no (0)
1                COc1cc2c(cc1O)C=[N+](C)CC2         yes (1)
2  COC(=O)[C@H]1[C@@H](O)[C@@]2(O)c3c(OC)cc(OC)cc3O[C@@]2(c2ccc(OC)cc2)[C@@H]1c1ccccc1          no (0)

Task: Is composite z-score for OCc1ccc(C2=CC(c3cccs3)N(Cc3cccc(OC(F)(F)F)c3)CC2)cc1 (stereo not drawn) at or above 0.7?
Result: yes (1)

Task: # iterate: CCCc1cc2c(n1Cc1ccco1)C(C)C1CN(C(=O)c3ccccc3)C(C)(C(=O)OC)C21 (stereo not drawn)
Result: yes (1)

Task: # iterate: COC(=O)[C@H]1[C@H](c2ccccc2)C(=O)[C@]2(O)c3ccccc3O[C@@]12c1ccccc1
Result: no (0)
